# Test system: CAKI-1 renal
# Experiment Notes: NCI tumour cell line growth inhibition, 48 h

# Molecule, System Tested, TGI
rows = [
    ("CC1=C(C)CC2C(=O)N(c3cc(C(C)(C)C)ccc3C(C)(C)C)C(=O)C2C1 (configuration not stated)", "CAKI-1 renal", "> 100 µM"),
    ("NC(=S)N/N=C(\\CC1OC(=O)c2ccccc21)c1ccc(Cl)cc1 (configuration not stated)", "CAKI-1 renal", "99.2 µM"),
    ("COc1cc(Nc2nc3ccccc3nc2C(=O)O)cc(OC)c1OC", "CAKI-1 renal", "76.4 µM"),
    ("BrC1=C(Br)C2(SCCS2)[C@H]2C[C@@H]1c1ccccc12", "CAKI-1 renal", "> 100 µM"),
    ("COc1cccc(F)c1C(=O)c1cnc(NC2CCN(S(C)(=O)=O)CC2)nc1N", "CAKI-1 renal", "> 22.9 µM"),
    ("COc1ccc(/C=C2\\CCNC2=O)cc1", "CAKI-1 renal", "> 100 µM"),
    ("CO[C@@]12C[C@@H](C)C3=CCC(C)=C3CC1=C(C)C(=O)O2", "CAKI-1 renal", "> 100 µM"),
    ("NC(CCCCCP(=O)(c1ccccc1)C1C=CC=CC1)C(=O)O (configuration not stated)", "CAKI-1 renal", "> 100 µM"),
    ("CCOC(=O)C(C#N)C1=CC(=O)C(=O)c2ccc(OC)cc21 (configuration not stated)", "CAKI-1 renal", "72.2 µM"),
    ("CC1CC(OP(=O)(OCc2ccccc2)OCc2ccccc2)[C@@H](OCc2ccccc2)C(OCc2ccccc2)C1OCc1ccccc1 (some centres not stated)", "CAKI-1 renal", "> 100 µM"),
    ("O=C1Nc2cccc(Cl)c2/C1=C\\c1c(Cl)nc2n1CCS2", "CAKI-1 renal", "> 100 µM"),
    ("COc1cc(OCc2cccc(-c3ccc(C(O)c4nccs4)cc3)c2C)cc(OC)c1C=O (configuration not stated)", "CAKI-1 renal", "3.3 µM"),
    ("CO/N=C(\\C(=O)OC(=NC1CCCCC1)NC1CCCCC1)c1csc(NC(c2ccccc2)(c2ccccc2)c2ccccc2)n1", "CAKI-1 renal", "> 10 µM"),
    ("[N-]=[N+]=Nc1c([N+](=O)[O-])c(=O)n(-c2ccccc2)c2ccccc12", "CAKI-1 renal", "56.3 µM"),
    ("CCCC(=O)OCC1OC(n2ccc(N)nc2=O)C(OC(=O)CCC)C1OC(=O)CCC (configuration not stated)", "CAKI-1 renal", "> 100 µM"),
    ("O=C1CCC(Cl)=CC2CCCN12 (configuration not stated)", "CAKI-1 renal", "> 100 µM"),
    ("COc1cccc(C(=O)Oc2ccc(OS(=O)(=O)c3ccc(C)cc3)cc2)c1C#N", "CAKI-1 renal", "> 100 µM"),
    ("O=C1COc2cccnc2N1CCCCO", "CAKI-1 renal", "> 100 µM"),
    ("CC1(C)[C@@H](Cn2ccc(=O)[nH]c2=O)CC[C@@]1(C)CO", "CAKI-1 renal", "> 100 µM"),
    ("Fc1ccc2c(c1)nc1n2C(c2c(Cl)cccc2Cl)SC1 (configuration not stated)", "CAKI-1 renal", "25 µM"),
    ("O=C(O)C(O)C(O)C(O)C(O)c1nc2ccccc2s1 (configuration not stated)", "CAKI-1 renal", "33.5 µM"),
    ("COC(=O)COc1ccccc1/C=C1\\N=C(c2ccccc2)N(c2cc(C(F)(F)F)ccc2Cl)C1=O", "CAKI-1 renal", "> 100 µM"),
]
